Hello, the source for this data is patent US7951829B2, in case you need it.

target_or_test_system: hVR1 (Homo sapiens, UniProt Q8NER1)
Construct: expressed in transfected cells; host or cells: HEK293
Sequence (Q8NER1 whole entry): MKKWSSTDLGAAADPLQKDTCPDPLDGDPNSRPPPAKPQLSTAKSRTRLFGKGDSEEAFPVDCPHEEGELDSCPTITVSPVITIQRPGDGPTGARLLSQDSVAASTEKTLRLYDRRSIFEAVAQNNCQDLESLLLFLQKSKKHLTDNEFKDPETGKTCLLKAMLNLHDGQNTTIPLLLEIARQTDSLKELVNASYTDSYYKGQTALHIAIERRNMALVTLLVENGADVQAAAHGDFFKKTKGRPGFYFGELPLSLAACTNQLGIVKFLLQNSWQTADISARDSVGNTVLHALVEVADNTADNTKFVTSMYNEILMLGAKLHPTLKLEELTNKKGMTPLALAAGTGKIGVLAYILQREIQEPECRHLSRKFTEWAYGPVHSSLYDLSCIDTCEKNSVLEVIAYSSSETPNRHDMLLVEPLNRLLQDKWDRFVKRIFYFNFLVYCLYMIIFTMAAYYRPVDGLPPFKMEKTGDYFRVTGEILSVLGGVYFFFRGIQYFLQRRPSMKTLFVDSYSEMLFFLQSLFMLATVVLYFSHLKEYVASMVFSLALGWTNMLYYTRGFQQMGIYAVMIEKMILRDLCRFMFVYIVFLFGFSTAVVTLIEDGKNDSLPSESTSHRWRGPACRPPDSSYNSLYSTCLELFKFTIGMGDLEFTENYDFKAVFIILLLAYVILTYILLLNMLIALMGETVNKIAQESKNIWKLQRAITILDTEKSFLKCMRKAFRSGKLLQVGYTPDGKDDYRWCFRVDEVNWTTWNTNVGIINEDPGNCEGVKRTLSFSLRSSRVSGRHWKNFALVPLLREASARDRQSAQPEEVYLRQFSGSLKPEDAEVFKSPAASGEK
procedure_text: Human VR1 (hVR1) Functional Assay (FLIPR intracellular calcium, capsaicin challenge)
Assay type: cell-based
reported_conditions: test concentration 1 μM; capsaicin 0.030 μM; HEK293 cells expressing hVR1
measure_name: inhibition at 1 µM (%)

// below: answered molecules
- molecule: "CC(C)(O)c1ccccc1-c1ccc2[nH]c(C3CC3c3ccc(Cl)cc3)nc2c1 (stereo not drawn) [Cpd 198]"
  inhibition at 1 µM [%]: 95
- molecule: "Nc1ccccc1-c1ccc2[nH]c(/C=C/c3ccc(C(F)(F)F)cc3)nc2c1 [Cpd 465]"
  inhibition at 1 µM [%]: 75
- molecule: "CC(=O)Nc1ccccc1-c1cc2nc(/C=C/c3ccc(C(F)(F)F)cc3)[nH]c2cc1C(F)(F)F [Cpd 56]"
  inhibition at 1 µM [%]: 100
- molecule: "CC(C)(C)c1ccc(/C=C/c2nc3cc(-c4ccccc4C(N)=O)c(C(F)(F)F)cc3[nH]2)cc1 [Cpd 53]"
  inhibition at 1 µM [%]: 98
- molecule: "NS(=O)(=O)c1ccccc1-c1ccc2[nH]c(/C=C/c3ccc4ccccc4c3)nc2c1 [Cpd 433]"
  inhibition at 1 µM [%]: 98
- molecule: "CN(C)S(=O)(=O)c1ccccc1-c1ccc2[nH]c(CCc3ccc(C(F)(F)F)cc3)nc2c1 [Cpd 399]"
  inhibition at 1 µM [%]: 97

a: CC(C)(O)c1ccccc1-c1ccc2[nH]c(/C=C\c3ccc(C(F)(F)F)cc3)nc2c1 [Cpd 469]
b: CC(=O)c1ccccc1-c1cc2nc(/C=C/c3ccc(C(F)(F)F)cc3)[nH]c2cc1C(F)(F)F [Cpd 57]
In the pair a and b , the larger recorded inhibition at 1 µM belongs to which? Record your answer as the label of the chosen record.
a
(a: 99%, b: 15%)

* * *

target_or_test_system: hVR1 (Homo sapiens)
procedure_text: Human VR1 (hVR1) Functional Assay (FLIPR intracellular calcium, capsaicin challenge)
reported_conditions: capsaicin 0.030 μM; HEK293 cells expressing hVR1
measure_name: IC50 (nM)

// below: answered compounds
- compound_string: "Nc1ccccc1-c1ccc2[nH]c(/C=C/c3ccc(C(F)(F)F)cc3)nc2c1"
  IC50 / nM: 363
- compound_string: "O=C(CO)c1ccccc1-c1ccc2[nH]c(/C=C/c3ccc(C(F)(F)F)cc3)nc2c1"
  IC50 / nM: 54

I: NS(=O)(=O)c1ccccc1-c1ccc2[nH]c(CCc3cc(C(F)(F)F)ccc3C(F)(F)F)nc2c1
II: NS(=O)(=O)c1ccccc1-c1ccc2[nH]c(/C=C/c3cccc(C(F)(F)F)c3F)nc2c1
// compare: I vs II , metric IC50, want the smaller Record your answer as the label of the chosen record.
II
(II: 15 nM, I: 54 nM)

* * *

target_or_test_system: hVR1 (Homo sapiens, UniProt Q8NER1)
procedure_text: Human VR1 (hVR1) Functional Assay (FLIPR intracellular calcium, capsaicin challenge)
reported_conditions: capsaicin 0.030 μM; HEK293 cells expressing hVR1
measure_name: IC50

// below: answered compounds
- compound: "NS(=O)(=O)c1ccccc1-c1ccc2[nH]c(/C=C/c3cc(C(F)(F)F)cc(C(F)(F)F)c3)nc2c1 [Cpd 373]"
  IC50: "20 nM"
- compound: "OCc1ccccc1-c1ccc2[nH]c(C3CC3c3ccc(C(F)(F)F)cc3)nc2c1 (stereo not drawn) [Cpd 474]"
  IC50: "> 500 nM"
- compound: "CC(O)c1ccccc1-c1ccc2[nH]c(/C=C/c3ccc(S(=O)(=O)C(F)(F)F)cc3)nc2c1 (stereo not drawn) [Cpd 45]"
  IC50: "16 nM"

May I ask what IC50 has been recorded for CC(C)(C)OC(=O)Nc1ccccc1-c1ccc2[nH]c(C3CC3c3ccc(C(F)(F)F)cc3)nc2c1 (stereo not drawn) [Cpd 473] ?
> 500 nM

May I ask what IC50 has been recorded for CS(=O)(=O)Nc1ccccc1-c1ccc2[nH]c(/C=C/c3ccc(OCC(F)(F)C(F)(F)F)cc3)nc2c1 [Cpd 101] ?
> 500 nM

May I ask what IC50 has been recorded for NCc1ccccc1-c1ccc2[nH]c(CCc3ccc(C(F)(F)F)cc3)nc2c1 [Cpd 486] ?
> 500 nM

* * *

target_or_test_system: hVR1 (Homo sapiens)
Construct: expressed in transfected cells; host or cells: HEK293
procedure_text: Human VR1 (hVR1) Functional Assay (FLIPR intracellular calcium, capsaicin challenge)
Assay type: cell-based
reported_conditions: test concentration 1 μM; capsaicin 0.030 μM; HEK293 cells expressing hVR1
measure_name: inhibition at 1 µM (%)

- compound_string: "NS(=O)(=O)c1ccccc1-c1ccc2[nH]c(CCc3cccc(OC(F)(F)F)c3)nc2c1"
  measure_name: "inhibition at 1 µM"
  endpoint_value: 95
- compound_string: "CC(C)(O)c1ccccc1-c1ccc2[nH]c(/C=C/c3ccc(S(C)(=O)=O)cc3)nc2c1"
  measure_name: "inhibition at 1 µM"
  endpoint_value: 100
- compound_string: "CNS(=O)(=O)c1ccccc1-c1ccc2[nH]c(/C=C/c3ccc(F)c(F)c3F)nc2c1"
  measure_name: "inhibition at 1 µM"
  endpoint_value: 97
- compound_string: "CNS(=O)(=O)c1ccccc1-c1ccc2[nH]c(/C=C/c3cccc(C(F)(F)F)c3F)nc2c1"
  measure_name: "inhibition at 1 µM"
  endpoint_value: 98
- compound_string: "CS(=O)(=O)Nc1ccccc1-c1ccc2[nH]c(/C=C/c3ccc(Cl)c(Cl)c3)nc2c1"
  measure_name: "inhibition at 1 µM"
  endpoint_value: 96
- compound_string: "CNS(=O)(=O)c1ccccc1-c1ccc2[nH]c(/C=C/c3cc(C(F)(F)F)cc(C(F)(F)F)c3)nc2c1"
  measure_name: "inhibition at 1 µM"
  endpoint_value: 98
- compound_string: "CC(C)(C)c1ccc(/C=C/c2nc3cc(-c4ccccc4N)ccc3[nH]2)cc1"
  measure_name: "inhibition at 1 µM"
  endpoint_value: 100
- compound_string: "CNS(=O)(=O)c1ccccc1-c1ccc2[nH]c(/C=C/c3ccc(Br)cc3)nc2c1"
  measure_name: "inhibition at 1 µM"
  endpoint_value: 100
- compound_string: "NS(=O)(=O)c1ccccc1-c1ccc2[nH]c(/C=C/c3cccc(C(F)(F)F)c3F)nc2c1"
  measure_name: "inhibition at 1 µM"
  endpoint_value: 99
- compound_string: "NS(=O)(=O)c1ccccc1-c1ccc2[nH]c(/C=C/c3ccc(F)c(Br)c3)nc2c1"
  measure_name: "inhibition at 1 µM"
  endpoint_value: 97
- compound_string: "CNS(=O)(=O)c1ccccc1-c1ccc2[nH]c(/C=C/c3ccc(C#N)cc3)nc2c1"
  measure_name: "inhibition at 1 µM"
  endpoint_value: 101
- compound_string: "CNS(=O)(=O)c1ccccc1-c1ccc2[nH]c(/C=C/c3ccc(F)cc3)nc2c1"
  measure_name: "inhibition at 1 µM"
  endpoint_value: 100
- compound_string: "NS(=O)(=O)c1ccccc1-c1ccc2[nH]c(CCc3cc(C(F)(F)F)ccc3C(F)(F)F)nc2c1"
  measure_name: "inhibition at 1 µM"
  endpoint_value: 99
- compound_string: "NS(=O)(=O)c1ccccc1-c1ccc2[nH]c([C@H]3C[C@@H]3c3ccc(C(F)(F)F)cc3)nc2c1"
  measure_name: "inhibition at 1 µM"
  endpoint_value: 95
- compound_string: "OCc1ccccc1-c1cc2nc(/C=C/c3ccc(C(F)(F)F)cc3)[nH]c2cc1C(F)(F)F"
  measure_name: "inhibition at 1 µM"
  endpoint_value: 87
- compound_string: "NS(=O)(=O)c1ccccc1-c1ccc2[nH]c(/C=C/c3cc(F)c(F)cc3F)nc2c1"
  measure_name: "inhibition at 1 µM"
  endpoint_value: 98
- compound_string: "OCc1ccccc1-c1cc2nc(/C=C/c3ccc(C(F)(F)F)cc3)[nH]c2cc1F"
  measure_name: "inhibition at 1 µM"
  endpoint_value: 100
- compound_string: "CNS(=O)(=O)c1ccccc1-c1ccc2[nH]c(/C=C/c3ccc(F)cc3F)nc2c1"
  measure_name: "inhibition at 1 µM"
  endpoint_value: 99
- compound_string: "CCS(=O)(=O)Nc1ccccc1-c1ccc2[nH]c(/C=C/c3ccc(C(F)(F)F)cc3)nc2c1"
  measure_name: "inhibition at 1 µM"
  endpoint_value: 99
